These entries and their values trace back to patent US20220033484A1.

- subject.of.test: T1, cTnI quality control product recombinant protein (human, UniProt P19429 2-210, limits assumed)
- T1 construct: treated as the same molecule; also called cTnI antigen; cardiac troponin I
- assay.name: AMC sensor, antibody immobilised, cTnI in solution
The binders listed here are annotated with their pKd.
Please keep in mind that pKd is minus log10 of the molar concentration; only the number is needed.

Ask | Could you share which pKd value was measured for Mutation 1-36 (antibody, V domains shown, Built as m8; CDR-VL1 cell printed 'VQ', read as V/Q) VH: EVQLQQSGPELVKPGASVKMSCKASGYTFTIYVVHWVKQKPGQGLEWIGYINPYIDGTKYNEKFKGKATLTVDKSSSTAFMELSSLTSEDSAVYYCARSGYGQYGLAWLAYWGQGTLVTVSA VL: QAVVIQESALTTSPGETVTLTCRSSTGAVTTSQYANWVQEKPDHLFTGLIGGSNNRAPGVPARFSGSLIGDKAALTITGAQTEDEAIYFCALVYSNHWVFGGGTKLTVLG ?
Reply | 8.48

Ask | Likewise for Mutation 1-49 (antibody, V domains shown, Built as m8) VH: EVQLQQSGPELVKPGASVKMSCKASGYTFTLYVLHWVKQKPGQGLEWIGYINPYLDGTKYNEKFKGKATLTVDKSSSTAFMELSSLTSEDSAVYYCARSGYGNYGLAWLAYWGQGTLVTVSA VL: QAVVIQESALTTSPGETVTLTCRSSTGAVTTSQYANWVQEKPDHLFTGLIGGSQNRAPGVPARFSGSLIGDKAALTITGAQTEDEAIYFCALVYSNNWVFGGGTKLTVLG ?
Reply | 8.82

Ask | Likewise for Mutation 1-21 (antibody, V domains shown, Built as m8) VH: EVQLQQSGPELVKPGASVKMSCKASGYTFTLYVVHWVKQKPGQGLEWIGYIYPYIDGTKYNEKFKGKATLTVDKSSSTAFMELSSLTSEDSAVYYCARSGYGQYGLAWLAYWGQGTLVTVSA VL: QAVVIQESALTTSPGETVTLTCRSSTGAATTSNYANWVQEKPDHLFTGLIGGSQNRAPGVPARFSGSLIGDKAALTITGAQTEDEAIYFCALVYSNQWVFGGGTKLTVLG ?
Reply | 8.83

Ask | Likewise for Mutation 1-39 (antibody, V domains shown, Built as m8) VH: EVQLQQSGPELVKPGASVKMSCKASGYTFTLYVVHWVKQKPGQGLEWIGYIQPYLDGTKYNEKFKGKATLTVDKSSSTAFMELSSLTSEDSAVYYCARSGYGQYGLAWLAYWGQGTLVTVSA VL: QAVVIQESALTTSPGETVTLTCRSSTGAVTTSNYANWVQEKPDHLFTGLIGGSQNRAPGVPARFSGSLIGDKAALTITGAQTEDEAIYFCALVYSNQWVFGGGTKLTVLG ?
Reply | 8.97

Below: the item to evaluate.
Ask | Could you share which pKd value was measured for Mutation 1-5 (antibody, V domains shown, Built as m8) VH: EVQLQQSGPELVKPGASVKMSCKASGYTFTLYVIHWVKQKPGQGLEWIGYIQPYIDGTKYNEKFKGKATLTVDKSSSTAFMELSSLTSEDSAVYYCARSGYGGYGLAWLAYWGQGTLVTVSA VL: QAVVIQESALTTSPGETVTLTCRSSTGAATTSNYANWVQEKPDHLFTGLIGGSQNRAPGVPARFSGSLIGDKAALTITGAQTEDEAIYFCALVYSNHWVFGGGTKLTVLG ?
Reply | 8.92
